Target: T1, Human CXCR2 (human, UniProt P25025 1-360)
T1 sequence: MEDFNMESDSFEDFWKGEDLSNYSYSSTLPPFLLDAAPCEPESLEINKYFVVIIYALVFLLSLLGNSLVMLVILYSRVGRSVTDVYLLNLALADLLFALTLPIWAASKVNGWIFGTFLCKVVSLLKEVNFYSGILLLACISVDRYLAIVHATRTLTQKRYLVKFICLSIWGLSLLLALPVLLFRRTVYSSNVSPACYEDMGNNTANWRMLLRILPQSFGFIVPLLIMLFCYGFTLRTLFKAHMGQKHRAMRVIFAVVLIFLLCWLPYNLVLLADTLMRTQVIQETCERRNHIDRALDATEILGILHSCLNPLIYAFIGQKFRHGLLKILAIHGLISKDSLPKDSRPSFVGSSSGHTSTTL
Experiment: cell-based or functional assay
measured.property: [35S]GTPγS IC50 (ENA-78) (nM)
Form entry: value (nM) — number only.

*Q* GET /values?readout=[35S]GTPγS IC50 (ENA-78)&item= CXCR20031 (bispecific antibody, Biparatopic: two VHH joined by a GlySer linker; also called 2B2-35GS-163E3; not shown: C-terminal c-myc tag and His6 tag coded by pAX100) EVQLVESGGELVQPGGSLRLSCAASGSILTINAMGWYRQAPGKQRELVVRRTRGGSTTYQDSVKGRFTISADIAKKTMYLQMNSLKPEDTAVYYCMLDDRGGVYWGQGTQVTVSSGGGGSGGGGSGGGGSGGGGSGGGGSGGGGSGGGGSEVQLVESGGGLVQPGGSLRLSCVASGRIFSSNAMGWFRQAPGKEREFVAAITWRSGGSAYYADSAKGRFTISRDNAKNTVYLQMNSLKPEDTAVYYCAAGGSSWLSFPPDYWGQGTQVTVSS
*A* 1.38
